These measurements were taken from patent US20140213531A1.

biological target: T1, Tryptase, from human lung (human, UniProt Q15661 31-275, limits assumed); assay: enzyme inhibition, pNA substrate
T1 construct: purified natural enzyme, bought
T1 sequence (Q15661 31-275 limits assumed): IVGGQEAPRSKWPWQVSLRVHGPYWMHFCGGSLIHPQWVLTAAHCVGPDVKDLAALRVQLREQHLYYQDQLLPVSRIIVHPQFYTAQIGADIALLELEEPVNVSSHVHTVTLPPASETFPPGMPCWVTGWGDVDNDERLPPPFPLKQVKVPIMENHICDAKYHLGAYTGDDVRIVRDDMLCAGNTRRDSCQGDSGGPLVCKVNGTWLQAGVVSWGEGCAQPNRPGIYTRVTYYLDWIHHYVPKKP
Bridges are numbered along the chain shown (N, C = ends). [ ]: non-standard residue; d: D form. Gly(octyl) = CCCCCCCC[C@H](N)C(=O)O; Pro(4NHCOPhe) = not defined here; Cha = N[C@@H](CC1CCCCC1)C(=O)O; Nle = CCCC[C@H](N)C(=O)O
Catalogue of binders with associated % inhibition at 100 µM

{"binder": "XCTASIPPQCX (HELM PEPTIDE1{[Nle].C.T.A.S.I.P.P.Q.C.[Cha].[dP].P}$PEPTIDE1,PEPTIDE1,2:R3-10:R3|PEPTIDE1,PEPTIDE1,1:R1-13:R2$$$V2.0; SMILES CCCC[C@@H]1NC(=O)[C@@H]2CCCN2C(=O)[C@H]2CCCN2C(=O)[C@H](CC2CCCCC2)NC(=O)[C@@H]2CSSC[C@H](NC1=O)C(=O)N[C@@H]([C@@H](C)O)C(=O)N[C@@H](C)C(=O)N[C@@H](CO)C(=O)N[C@@H]([C@@H](C)CC)C(=O)N1CCC[C@H]1C(=O)N1CCC[C@H]1C(=O)N[C@@H](CCC(N)=O)C(=O)N2, also called Ex. 97) [Example 97]", "unitLabel": "%", "% inhibition at 100 µM": 0}
{"binder": "cyclo([Nle]CAASIPPQCY[dP]P) (disulfide 2-10, also called Ex. 86) [Example 86]", "unitLabel": "%", "% inhibition at 100 µM": 0}
{"binder": "XETASIPPQKY (HELM PEPTIDE1{[Nle].E.T.A.S.I.P.P.Q.K.Y.[dP].P}$PEPTIDE1,PEPTIDE1,1:R1-13:R2$$$V2.0; SMILES CCCC[C@@H]1NC(=O)[C@@H]2CCCN2C(=O)[C@H]2CCCN2C(=O)[C@H](Cc2ccc(O)cc2)NC(=O)[C@H](CCCCN)NC(=O)[C@H](CCC(N)=O)NC(=O)[C@@H]2CCCN2C(=O)[C@@H]2CCCN2C(=O)[C@H]([C@@H](C)CC)NC(=O)[C@H](CO)NC(=O)[C@H](C)NC(=O)[C@H]([C@@H](C)O)NC(=O)[C@H](CCC(=O)O)NC1=O) [Example 104]", "unitLabel": "%", "% inhibition at 100 µM": 0}
{"binder": "cyclo([Gly(octyl)]CTAS[Cha]P[Pro(4NHCOPhe)]QCQ[dP]P) (disulfide 2-10; not fully specified; reading uncertain, also called Ex. 160) [Example 160]", "unitLabel": "%", "% inhibition at 100 µM": 30}
{"binder": "XCTASIPPQCY (HELM PEPTIDE1{[Nle].C.T.A.S.I.P.P.Q.C.Y.[dK].E}$PEPTIDE1,PEPTIDE1,2:R3-10:R3|PEPTIDE1,PEPTIDE1,1:R1-13:R2$$$V2.0; SMILES CCCC[C@@H]1NC(=O)[C@H](CCC(=O)O)NC(=O)[C@@H](CCCCN)NC(=O)[C@H](Cc2ccc(O)cc2)NC(=O)[C@@H]2CSSC[C@H](NC1=O)C(=O)N[C@@H]([C@@H](C)O)C(=O)N[C@@H](C)C(=O)N[C@@H](CO)C(=O)N[C@@H]([C@@H](C)CC)C(=O)N1CCC[C@H]1C(=O)N1CCC[C@H]1C(=O)N[C@@H](CCC(N)=O)C(=O)N2) [Example 127]", "unitLabel": "%", "% inhibition at 100 µM": 0}
{"binder": "cyclo([Nle]CTAS[Cha]P[Pro(4NHCOPhe)]QCQ[dQ]Q) (disulfide 2-10; reading uncertain, also called Ex. 176) [Example 176]", "unitLabel": "%", "% inhibition at 100 µM": 17}
